Every entry's value here was drawn from patent US3984432A.

# Assay remarks: Absorption maximum after colour development in a photographic silver halide layer according to Use Example I
# Assay type: physicochemical
Measured Abs.max. (single maximum) by item

Compound	Abs.max. (single maximum) [nm]
CCCCOP(=O)(CCCc1ccc(NC(=O)c2ccc(OC)c(NC(=O)CC(=O)C(C)(C)C)c2)cc1)OCCCC [(118)]	438
CCCCOP(=O)(CCCc1ccc(NC(=O)CC(=O)c2ccc(Cl)cc2)cc1)OCCCC [(125)]	440
CCOP(=O)(CCCc1ccc(NC(=O)CC(=O)C(C)(C)C)cc1)OCC [(103)]	429
CCOP(=O)(Cc1ccc(NC(=O)CC(=O)c2ccccc2)cc1)OCC [(102)]	438
CC(C)OP(=O)(OC(C)C)C1(C)CC(NC(=O)c2ccc(Cl)c(NC(=O)CC(=O)c3ccc(C(C)(C)C)cc3)c2)CC(C)(C)C1 (stereo not shown) [(140)]	439
CCCCOP(=O)(CCCOc1cc(OCCCP(=O)(OCCCC)OCCCC)cc(C(=O)Nc2ccc(Cl)c(NC(=O)CC(=O)C(C)(C)C)c2)c1)OCCCC [(116)]	444
CCOP(=O)(OCC)C(C)(C)NC(=O)c1cccc(NC(=O)c2cccc(NC(=O)CC(=O)c3ccccc3)c2)c1 [(107)]	444
CC(C)(C)P(=O)(Oc1ccccc1)Oc1ccc(NC(=O)CC(=O)c2ccccc2)cc1 (stereo not shown) [(129)]	440
COc1ccc(C(=O)CC(=O)Nc2cc(C(=O)NCCCP(=O)(OC(C)C)OC(C)C)ccc2C(=O)NCCCP(=O)(OC(C)C)OC(C)C)cc1 [(131)]	442
CCCCOP(=O)(Cc1ccc(CP(=O)(OCCCC)OCCCC)c(NC(=O)c2ccc(OC)c(NC(=O)CC(=O)c3ccc(C(C)(C)C)cc3)c2)c1)OCCCC [(136)]	440
CCCCOP(=O)(CCCOc1cc(OCCCP(=O)(OCCCC)OCCCC)cc(C(=O)Nc2ccc(C)c(NC(=O)CC(=O)C(C)(C)C)c2)c1)OCCCC [(117)]	445
CCCCOP(=O)(CC(=O)Nc1cccc(NC(=O)CC(=O)c2ccccc2)c1)OCCCC [(109)]	442
COc1ccc(C(=O)NCCCP(=O)(OC(C)C)OC(C)C)cc1NC(=O)CC(=O)c1ccccc1Cl [(128)]	447
CCCCC(CC)COP(=O)(CCNC(=O)c1ccc(Cl)c(NC(=O)CC(=O)c2ccc(OC)cc2)c1)OCC(CC)CCCC (stereo not shown) [(134)]	447
CCCCOP(=O)(CCCc1ccc(NC(=O)CC(=O)c2ccccc2)cc1)OCCCC [(124)]	436
CCCCOP(=O)(Cc1ccc(CP(=O)(OCCCC)OCCCC)c(NC(=O)c2ccc(C)c(NC(=O)CC(=O)c3ccccc3Cl)c2)c1)OCCCC [(143)]	440
CC(C)OP(=O)(OC(C)C)C1(C)CC(NC(=O)c2ccc(Oc3ccccc3)c(NC(=O)CC(=O)c3ccc(Cl)cc3)c2)CC(C)(C)C1 (stereo not shown) [(144)]	441
CCCCOP(=O)(CCCC)Oc1cccc(NC(=O)Cc2ccc(NC(=O)CC(=O)c3ccccc3Cl)cc2)c1 (stereo not shown) [(138)]	442
Cc1ccc(C(=O)NCCCP2(=O)OCC(C)(C)CO2)cc1NC(=O)CC(=O)c1ccc(Cl)cc1 [(139)]	441
CC(C)CCOP(=O)(CCCc1ccc(NC(=O)CC(=O)c2ccc(Cl)cc2)cc1)OCCC(C)C [(132)]	438
CCCCOP(=O)(CCCOc1cc(OCCCP(=O)(OCCCC)OCCCC)cc(C(=O)Nc2ccc(NC(=O)CC(=O)C(C)(C)C)cc2)c1)OCCCC [(114)]	431
CCCCOP(=O)(OCCCC)C(CC)OC(=O)c1ccc(NC(=O)CC(=O)c2ccccc2OC)cc1 (stereo not shown) [(142)]	435
COc1ccc(C(=O)NCCCP(=O)(OC(C)C)OC(C)C)cc1NC(=O)CC(=O)c1ccc(Cl)cc1 [(127)]	444
CCCCOP(=O)(CCCOc1cc(OCCCP(=O)(OCCCC)OCCCC)cc(C(=O)Nc2cc(Cl)c(C)c(Cl)c2O)c1)OCCCC [(701)]	662
CCCCC(CC)COP(=O)(CCCNC(=O)c1ccc(Cl)c(NC(=O)CC(=O)C(C)(C)C)c1)OCC(CC)CCCC (stereo not shown) [(135)]	445
